Each recorded value in this set is attributed to paper PMC6862080.

system: erythrocyte membranes; experiment: Hemolysis in whole blood (Kahn method); assay type: cell-based, human
Peptide text beside a SMILES is read from it. * marks the point of attachment. Lauroyl = CCCCCCCCCCCC(=O)*
observation-type: Free Hemoglobin, BLOOD, 128 μg/mL (mg/dL)
# output: bare number, implied unit mg/dL

Incoming: Quick one: Free Hemoglobin, BLOOD, 128 μg/mL for CCCCCCCCCCCC(=O)N1CCC[C@H]1C(=O)N[C@@H](Cc1ccccc1)C(=O)N[C@@H](Cc1c[nH]c2ccccc12)C(=O)N[C@@H](CCCNC(=N)N)C(=O)N[C@H](C(=O)N[C@@H](CCCNC(=N)N)C(=O)N[C@H](C(=O)N[C@@H](CCCNC(=N)N)C(=O)N[C@@H](CCCNC(=N)N)C(N)=O)[C@@H](C)CC)[C@@H](C)CC [LF11-322-C12] (Lauroyl-PFWRIRIRR-NH2) ?
Outgoing: 3.2
